Test system: SK-MEL-2 melanoma
Procedure details: NCI-60 one-dose screen, 48 h
Test context: 10 µM unless noted
The panel holds about 83,000 compounds, 20% with a hit somewhere; the sample as a whole holds those more often. Calls of active or inactive are those of the source. The calls were made as follows: active = growth percent below 10; inactive = the rest.
Allowed answers: active, inactive

Look up the recorded call for S=C(NCCc1ccccc1)Nc1ccc(OCc2nc3ccc(Cl)cc3[nH]2)cc1 in this test.
inactive

* * *

Tested on: UACC-62 melanoma
Procedure details: NCI-60 one-dose screen, 48 h (100 = growth as untreated, 0 = no growth, -100 = all killed)
Test context: 10 µM unless noted
About 83,000 compounds went through this panel and 20% of them were active in at least one assay; those are over-represented in the sample as a whole.
Endpoint label: growth (%)
State just the number; it will be interpreted in %.

See these solved cases before continuing.
Structure smiles: CN(C)c1nc(NCCNS(=O)(=O)c2ccc(C(=O)/C=C/c3ccc(F)cc3)cc2)nc(N2CCOCC2)n1
growth / %: 55.2
//
Structure smiles: CN(C)c1ccc(/C=C/c2n(Cc3ccc4ccccc4c3)c3ccccc3[n+]2Cc2ccc3ccccc3c2)cc1
growth / %: -93.3
//
Structure smiles: COc1ccc(-c2cc(-c3cc(OC)c(OC)c(OC)c3)[nH]c(=O)c2C#N)cc1
growth / %: 59.3
//
Structure smiles: Cc1ccc(Nc2nnc(-c3c[nH]c4ccccc34)o2)c(C)c1
growth / %: 7.3
//
Structure smiles: O=C1N/C(=N\c2nccs2)S/C1=C\c1ccc([N+](=O)[O-])cc1
growth / %: 2.3
//
Structure smiles: COc1ccc(/C=C/C(=O)c2ccc(OC)c(S(N)(=O)=O)c2)c(C(F)(F)F)c1
growth / %: 30.6
//
Structure smiles: C#CCN(C)CCCOc1ccc(N(CC)C(=O)c2cc(C(C)C)c(O)cc2O)cc1Cl
growth / %: -66
//
Structure smiles: O=C(Nc1nc2ccc([N+](=O)[O-])cc2s1)Nc1ccc(Cl)cc1Cl
growth / %: 56

Record request: growth value, item COc1sc(/C=N/NC(=O)c2[nH]c3ccc(Br)cc3c2-c2ccccc2)cc1Cl
-30.6

* * *

Tested on: UACC-62 melanoma
Procedure details: NCI-60 one-dose screen, 48 h (100 = growth as untreated, 0 = no growth, -100 = all killed)
Test context: 10 µM unless noted
This is part of a sample that, as a whole, favours compounds with a hit. Of some 83,000 tested, about 20% had one in any assay.
Endpoint label: growth (%)
Please give a number only; it is taken to be in %.

Consider the worked cases shown below.
Compound: N#Cc1cc(-c2ccc3ncnc(N4CCc5cc(F)c(Cl)cc54)c3c2)cnc1N
Reading: 56.7

Compound: CN(C)c1nc(NCCNS(=O)(=O)c2ccc(C(=O)/C=C/c3ccc(Cl)cc3)cc2)nc(N2CCOCC2)n1
Reading: 52.5

Compound: COc1cc(CNC(=O)C[C@H](C)CCC=C(C)C)ccc1OCc1cn(-c2ccccc2F)nn1
Reading: 69.5

Compound: CCN1C(=O)N(CC)C2NNC(Sc3c(C(=O)O)c4ccccc4n(CC(C)C)c3=O)=NC21 (stereo unspecified)
Reading: 14.7

Pending compound:
Please look up its growth: CN(C)C(=O)c1cc(-c2ccc3ncnc(N4CCc5cc(F)c(Cl)cc54)c3c2)cnc1N
-83.7

* * *

Tested on: NCI-H322M lung
Procedure details: NCI-60 one-dose screen, 48 h (100 = growth as untreated, 0 = no growth, -100 = all killed)
Test context: 10 µM unless noted
Protocol: Growth inhibition of the NCI-H322M human Non-Small Cell Lung tumor cell line is measured as a screen for anti-cancer activity. Cells are grown in 96 well plates and exposed to the test compound for 48 hours. Compounds are tested at a single concentration, which is 10^-5 M for most compounds. The reported endpoint is percent growth (GI% or GIPRCNT), where numbers from 0 - 100% represent growth inhibition, and numbers from -100% - 0 represent cell death. […]
The panel holds about 83,000 compounds, 20% with a hit somewhere; the sample as a whole holds those more often.
growth values by entry
Give just the number in %; leave the unit off.

These solved cases illustrate the format of a correct answer.
Structure smiles: Cc1ccc2nc(SCc3ccccc3F)n(-c3ccccc3)c(=O)c2c1
Unit: %
growth: 97.1
--
Structure smiles: Cc1nc2sccn2c1-c1nnc(SCc2ccccc2)o1
Unit: %
growth: 90.4
--
Structure smiles: COc1ccc(/C=C/C(=O)c2ccc(OC)c(S(N)(=O)=O)c2)c(C(F)(F)F)c1
Unit: %
growth: -2.93
--
Structure smiles: COC(=O)c1ccc(-c2c(-c3ccccc3)c(F)c3oc(C(=O)OC)c(N)c3c2-c2ccccc2)cc1
Unit: %
growth: 97.1

Let's switch to this compound now.
Form field: reported growth of Cc1ccc(N=Nc2c(N)nn3c(-c4cc5cc(Br)ccc5oc4=O)ccnc23)cc1
83.6
